Target: human NTCP (Homo sapiens, UniProt Q14973)
Sequence (Q14973 1-349): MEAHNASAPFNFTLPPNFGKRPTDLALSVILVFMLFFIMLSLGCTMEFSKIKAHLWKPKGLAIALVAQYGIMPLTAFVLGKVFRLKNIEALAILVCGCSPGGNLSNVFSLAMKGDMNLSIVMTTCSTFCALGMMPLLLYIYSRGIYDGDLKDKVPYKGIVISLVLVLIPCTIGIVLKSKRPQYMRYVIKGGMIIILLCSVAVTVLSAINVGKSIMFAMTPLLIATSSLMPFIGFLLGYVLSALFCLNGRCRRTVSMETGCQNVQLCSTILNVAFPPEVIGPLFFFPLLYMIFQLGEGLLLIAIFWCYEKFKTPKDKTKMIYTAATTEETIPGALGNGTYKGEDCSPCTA
Assay: Screening taurocholate uptake assay (96-well, [14C]taurocholate, 10 µM drug)
Conditions: Prestwick library screen, 10 µM drug; B-score of taurocholate uptake
Counter-ions that a name gives are not always drawn.
reported_metric: B-score functional assay

-- ask Reported B-score functional assay for CC[C@H]1OC(=O)[C@H](C)[C@@H](O[C@H]2C[C@@](C)(OC)[C@@H](O)[C@H](C)O2)[C@H](C)[C@@H](O[C@@H]2O[C@H](C)C[C@H](N(C)C)[C@H]2O)[C@](C)(O)C[C@@H](C)CN(C)[C@H](C)[C@@H](O)[C@]1(C)O : what is it?
-- reply 0.119

-- ask Which B-score functional assay is reported for this compound? CCOc1ccc(Cc2nccc3cc(OCC)c(OCC)cc23)cc1OCC [Ethaverine hydrochloride]
-- reply 0.024

-- ask Given O=C1NCCN1CCN1CCC(c2cn(-c3ccc(F)cc3)c3ccc(Cl)cc23)CC1 , state its recorded B-score functional assay.
-- reply 0.957

Numbers sourced from paper PMC5681660.
